target: T1, hGPVI-hFc fusion protein (human); assay: DELFIA competition assay: Fab preincubated with GPVI-Fc (3 µg/ml), binding to collagen-coated plate, Test 2
T1 construct: also called GPVI-Fc; human GPVI-Fc fusion protein
experimental.endpoint: IC50 (µg/mL)
# unit: µg/mL | format: bare number

Some entries whose results are on file:
binder: humanized anti-GPVI Fab VL1/VH4 (Fab, V domains shown, Recombinant Fab: VH fused to CH1 of human IGHG1 (Q569F4), HC ends in DKTHT; VL fused to human constant kappa (Q502W4); also called VL1 with VH4) VH: QVQLQESGPGLVAPSQSLSITCTVSGFSLTYYGVNWVRQPPSRGLEWLGMIWGDGSTDYQSTLKSRLSISKDNSKSQVFLKMNSLTTDDTARYYCARDLPMDYWGQGTSVTVSS VL: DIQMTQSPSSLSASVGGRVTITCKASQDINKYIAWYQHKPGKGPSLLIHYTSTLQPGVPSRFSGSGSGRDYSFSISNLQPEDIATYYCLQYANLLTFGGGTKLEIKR
units: µg/mL
IC50: 1.14
//
binder: humanized anti-GPVI Fab VL1/VH5 (Fab, V domains shown, Recombinant Fab: VH fused to CH1 of human IGHG1 (Q569F4), HC ends in DKTHT; VL fused to human constant kappa (Q502W4); also called VL1 with VH5) VH: QVQLQESGPGLVAPSQSLSITCTVSGFSLTGYGVNWVRQPPSRGLEWLGMIWGDGSTDYQSTLKSRLSISKDNSKSQVFLKMNSLTTDDTARYYCARDLPMDEWGQGTSVTVSS VL: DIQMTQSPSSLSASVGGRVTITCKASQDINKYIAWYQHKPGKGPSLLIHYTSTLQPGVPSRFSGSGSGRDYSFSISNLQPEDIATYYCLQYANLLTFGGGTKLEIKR
units: µg/mL
IC50: 1.58
//
binder: humanized anti-GPVI Fab VL1/VH3 (Fab, V domains shown, Recombinant Fab: VH fused to CH1 of human IGHG1 (Q569F4), HC ends in DKTHT; VL fused to human constant kappa (Q502W4); also called VL1 with VH3) VH: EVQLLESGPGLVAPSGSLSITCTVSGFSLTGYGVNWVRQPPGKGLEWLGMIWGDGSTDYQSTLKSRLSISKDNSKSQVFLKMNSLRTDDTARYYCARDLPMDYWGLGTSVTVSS VL: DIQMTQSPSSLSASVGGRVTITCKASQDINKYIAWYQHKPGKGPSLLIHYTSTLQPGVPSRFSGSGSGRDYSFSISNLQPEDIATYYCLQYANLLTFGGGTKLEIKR
units: µg/mL
IC50: 1.24
//
binder: humanized anti-GPVI Fab VL1/VH2 (Fab, V domains shown, Recombinant Fab: VH fused to CH1 of human IGHG1 (Q569F4), HC ends in DKTHT; VL fused to human constant kappa (Q502W4); also called VL1 with VH2) VH: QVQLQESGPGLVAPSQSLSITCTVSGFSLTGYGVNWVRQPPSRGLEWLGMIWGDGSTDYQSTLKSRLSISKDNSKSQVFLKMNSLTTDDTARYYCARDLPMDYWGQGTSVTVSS VL: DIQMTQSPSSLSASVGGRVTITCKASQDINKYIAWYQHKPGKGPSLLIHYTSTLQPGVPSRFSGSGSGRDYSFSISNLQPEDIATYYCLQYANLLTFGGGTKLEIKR
units: µg/mL
IC50: 0.82

Lookup: Give the measured IC50 of humanized anti-GPVI Fab VL3/VH2 (Fab, V domains shown, Recombinant Fab: VH fused to CH1 of human IGHG1 (Q569F4), HC ends in DKTHT; VL fused to human constant kappa (Q502W4); also called VL3 with VH2) VH: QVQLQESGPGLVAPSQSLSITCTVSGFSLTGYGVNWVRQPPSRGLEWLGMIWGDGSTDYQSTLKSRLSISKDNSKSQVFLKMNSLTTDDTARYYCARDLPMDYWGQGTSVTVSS VL: DIQMTQSPSSLSASVGGRVTITCKASQDINKYIAWYQHKPGKGPSLLIHYTSTLQPGVPSRFSGSGSGRDYSFSISNLQPEDIATYYCLQYALLLTFGGGTKLEIKR .
Found: 0.9

Lookup: Give the measured IC50 of humanized anti-GPVI Fab VL2/VH2 (Fab, V domains shown, Recombinant Fab: VH fused to CH1 of human IGHG1 (Q569F4), HC ends in DKTHT; VL fused to human constant kappa (Q502W4); also called VL2 with VH2) VH: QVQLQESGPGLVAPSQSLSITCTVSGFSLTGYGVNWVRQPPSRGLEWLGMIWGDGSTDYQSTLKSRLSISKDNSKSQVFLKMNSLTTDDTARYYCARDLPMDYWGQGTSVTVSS VL: DIQMTQSPSSLSASVGGRVTITCKASQDINKYIAWYQHKPGKGPSLLIHYTSTLQPGVPSRFSGSGSGRDYSFSISNLQPEDIATYYCLQYAHLLTFGGGTKLEIKR .
Found: 0.73
